Target System: JAK3 (Homo sapiens, UniProt P52333)
Construct: purchased Thermo fisher PV3855
Sequence (P52333 781-1124 limits assumed): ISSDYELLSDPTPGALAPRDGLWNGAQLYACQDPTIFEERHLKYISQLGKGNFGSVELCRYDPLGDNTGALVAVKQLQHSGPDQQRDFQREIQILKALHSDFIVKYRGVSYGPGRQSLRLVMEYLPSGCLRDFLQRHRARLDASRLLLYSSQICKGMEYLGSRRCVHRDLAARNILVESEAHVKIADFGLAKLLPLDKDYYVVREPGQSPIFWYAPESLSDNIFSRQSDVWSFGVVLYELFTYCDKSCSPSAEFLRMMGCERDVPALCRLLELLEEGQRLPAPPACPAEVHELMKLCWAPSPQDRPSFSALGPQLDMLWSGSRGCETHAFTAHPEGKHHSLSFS
Assay Explanation: JAK3 biochemical assay (ADP-GLO Kinase Assay)
Test Context: ratio of JAK3 IC50 to HPK1 IC50; second testing facility
Parameter JAKs/HPK1 IC50 Ratio, N*: see the listing below.

Answered examples (2):
chem_smiles=COc1cc2c(cc1Nc1ncc3ncn(-c4ccccc4C(=O)N(C)C)c3n1)CN(C)CC2 target_system="JAK3 (Homo sapiens, UniProt P52333)" endpoint_result=>10
chem_smiles=COc1cc2c(cc1Nc1ncc(Cl)c(-n3cc(P(C)(C)=O)c4ccccc43)n1)CN(C)CC2 target_system="JAK3 (Homo sapiens, UniProt P52333)" endpoint_result=>558

Please look at the following compound next.
Determine its reported JAKs/HPK1 IC50 Ratio, N*: "COc1cc2c(cc1Nc1ncc(Cl)c(-n3cc(C(=O)N(C)C)c4ccccc43)n1)CN(C)CC2" >2457

---

Target System: UniProt Q92918
Sequence (Q92918 whole entry): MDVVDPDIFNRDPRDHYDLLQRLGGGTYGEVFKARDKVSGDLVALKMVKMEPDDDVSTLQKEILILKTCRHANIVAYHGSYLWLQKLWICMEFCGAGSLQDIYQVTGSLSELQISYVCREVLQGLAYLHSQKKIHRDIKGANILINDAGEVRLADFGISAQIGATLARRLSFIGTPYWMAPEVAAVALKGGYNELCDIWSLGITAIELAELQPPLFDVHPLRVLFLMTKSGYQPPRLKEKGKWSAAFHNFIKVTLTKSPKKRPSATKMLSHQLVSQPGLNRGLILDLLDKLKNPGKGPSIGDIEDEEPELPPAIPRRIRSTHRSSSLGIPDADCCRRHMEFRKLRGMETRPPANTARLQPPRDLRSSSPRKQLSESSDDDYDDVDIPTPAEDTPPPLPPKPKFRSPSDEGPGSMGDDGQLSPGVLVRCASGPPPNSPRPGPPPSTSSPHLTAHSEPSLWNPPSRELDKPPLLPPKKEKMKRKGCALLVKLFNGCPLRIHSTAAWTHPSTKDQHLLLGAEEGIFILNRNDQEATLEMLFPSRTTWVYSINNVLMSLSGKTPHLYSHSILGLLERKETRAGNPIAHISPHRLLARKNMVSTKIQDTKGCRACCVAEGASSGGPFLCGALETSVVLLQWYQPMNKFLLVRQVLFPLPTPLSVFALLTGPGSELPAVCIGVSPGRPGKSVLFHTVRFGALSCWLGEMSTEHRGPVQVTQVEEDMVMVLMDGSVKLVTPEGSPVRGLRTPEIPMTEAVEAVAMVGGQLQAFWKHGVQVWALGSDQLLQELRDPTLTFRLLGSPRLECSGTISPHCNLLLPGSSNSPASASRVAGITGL
Assay Explanation: HPK1 biochemical assay (ADP-GLO Kinase Assay)
Test Context: B*: testing performed in a first testing facility; read-out: HPK1 IC50 (nM) Relative, B*
Measurement Kind: IC50

Answered examples (5):
compound="COc1cc2c(cc1Nc1ncc(Cl)c(N3CC(C(=O)O)c4ccccc43)n1)CN(C)CC2 (stereo not drawn) [Example 32]" target_system="UniProt Q92918" endpoint_result="≤ 100 nM"
compound="COc1cc2c(cc1Nc1ncc(Cl)c(N3CC(C)(CC(=O)O)c4ccc(F)cc43)n1)CN(C)CC2 (single isomer, unassigned) [Example 152]" target_system="UniProt Q92918" endpoint_result="≤ 100 nM"
compound=CCc1c[nH]c2ncc(-c3ccc(C(=O)OC)c(P(C)(C)=O)c3)cc12 target_system="UniProt Q92918" endpoint_result="100 to 500 nM"
compound=CCc1c[nH]c2ncc(-c3ccc(CF)c(P(C)(C)=O)c3)cc12 target_system="UniProt Q92918" endpoint_result="100 to 500 nM"
compound="COc1cc2c(cc1Nc1ncc(Cl)c(N3CC(C(=O)NS(C)(=O)=O)c4ccccc43)n1)CN(C)CC2 (stereo not drawn)" target_system="UniProt Q92918" endpoint_result="≤ 100 nM"

Determine its reported IC50: "CN1CCc2cc(Cl)c(Nc3ncc(Cl)c(N4CCc5ccccc54)n3)cc2C1" ≤ 100 nM

Determine its reported IC50: "CCC(CC)COC(=O)Cc1cn(-c2nc(Nc3cc4c(cc3OC)CCN(C)C4)ncc2Cl)c2ccccc12" 100 to 500 nM

Determine its reported IC50: CCOC(=O)CC1(C)CN(c2nc(Nc3cc4c(cc3OC)CCN(C)C4)ncc2Cl)c2ccccc21 (stereo not drawn) ≤ 100 nM

Determine its reported IC50: "CCc1c[nH]c2ncc(-c3ccc(OC)c(P(C)(C)=O)c3)cc12" 100 to 500 nM

---

Target System: UniProtKB Q92918
Assay Explanation: HPK1 biochemical assay (ADP-GLO Kinase Assay)
Test Context: B*: testing performed in a first testing facility; read-out: HPK1 IC50 (nM) Relative, B*
Measurement Kind: IC50

Answered examples (2):
compound=COc1cc2c(cc1Nc1ncc(Cl)c(-n3cc(S(C)(=O)=O)c4ccccc43)n1)CN(C)CC2 target_system="UniProtKB Q92918" endpoint_result="≤ 100 nM"
compound=CC(C)c1c[nH]c2ncc(-c3ccc(N)c(P(C)(C)=O)c3)cc12 target_system="UniProtKB Q92918" endpoint_result="≤ 100 nM"

Determine its reported IC50: "COc1cc2c(cc1Nc1ncc(Cl)c(N3CCc4c(Cl)cccc43)n1)CN(C)CC2" 100 to 500 nM

Determine its reported IC50: "COc1nc2c(cc1Nc1ncc(Cl)c(N3CCc4ncccc43)n1)CN(C)CC2" ≤ 100 nM

Determine its reported IC50: "CCc1c[nH]c2ncc(-c3ccc(F)c(P(C)(C)=O)c3)cc12" ≤ 100 nM

Determine its reported IC50: "CCc1c[nH]c2ncc(-c3ccc(N4CCCC4=O)c(P(C)(C)=O)c3)cc12" 100 to 500 nM

Determine its reported IC50: COc1cc2c(cc1Nc1ncc(Cl)c(N3CC(C)(CO)c4ccccc43)n1)CN(C)CC2 (stereo not shown) ≤ 100 nM

Determine its reported IC50: "COc1cc2c(cc1Nc1ncc(C(F)(F)F)c(-n3ccc4ccccc43)n1)CN(C)CC2" ≤ 100 nM

Determine its reported IC50: "COc1cc2c(cc1Nc1ncc(Cl)c(-n3cc(CC(N)=O)c4ccccc43)n1)CN(C)CC2" ≤ 100 nM

Determine its reported IC50: "COc1cc2c(cc1Nc1ncc3ncn(-c4ccccc4)c3n1)CN(C)CC2" > 1000 nM
